Each entry below lists one item and its recorded Encapsulation efficiency value.
experiment: Preparation and characterisation of mRNA-encapsulating lipid nanoparticle (encapsulation efficiency, particle size); format: physicochemical; conditions: LNP encapsulating Fluc mRNA; Lipid:DSPC:CHO-HP:M-DMG-2000 48:10:40.5:1.5
readout name: Encapsulation efficiency (%)

INSERT INTO measurements (compound, experimental_value) VALUES
  ('CCCCCCC(CCCCCC)OC(=O)CCCCCCCCC(CCCCCCCCC(=O)OC(CCCCCC)CCCCCC)OC(=O)N(CCCN(C)C)CC(=O)OCC [Compound 268]', 92.22),
  ('CCCCCCC(CCCCCC)OC(=O)CCCCCCCCC(CCCCCCCCC(=O)OC(CCCCCC)CCCCCC)OC(=O)N(CCCC(=O)OCCCCC)CCCN(C)C [Compound 260]', 95.36),
  ('CCCCCCOC(=O)CCN(CCCN(C)C)C(=O)OC(CCCCCCCCC(=O)OC(CCCCCC)CCCCCC)CCCCCCCCC(=O)OC(CCCCCC)CCCCCC [Compound 266]', 94.26),
  ('CCCCCCOC(=O)CCN(CCCN(C)C)C(=O)OC(CCCCCCCCC(=O)OCC(CCCC)CCCCCC)CCCCCCCCC(=O)OCC(CCCC)CCCCCC (stereo not drawn) [Compound 372]', 92.17),
  ('CCCCCCCN(CCCN(C)C)C(=O)OC(CCCCCCCCC(=O)OC(CCCCCC)CCCCCC)CCCCCCCCC(=O)OC(CCCCCC)CCCCCC [Compound 110]', 90.82),
  ('CCCCCCC(CCCCCC)OC(=O)CCCCCCCCC(CCCCCCCCC(=O)OC(CCCCCC)CCCCCC)OC(=O)N(CCCN(C)C)CCC(=O)OC(C)CCCC (stereo not drawn) [Compound 320]', 92.13);

* * *

test: Preparation and characterisation of mRNA-encapsulating lipid nanoparticle (encapsulation efficiency, particle size); format: physicochemical; settings: LNP encapsulating Fluc mRNA; Lipid:DSPC:CHO-HP:M-DMG-2000 48:10:40.5:1.5
Each entry below lists one item and its recorded Encapsulation efficiency value.
readout name: Encapsulation efficiency (%)

INSERT INTO measurements (molecule, units, experimental_value) VALUES
  ('CCCCCCCCOC(=O)CN(CCCN(C)C)C(=O)OC(CCCCCCCCC(=O)OC(CCCCCC)CCCCCC)CCCCCCCCC(=O)OC(CCCCCC)CCCCCC', '%', 93.06),
  ('CCCCCCC(CCCCCC)OC(=O)CCCCCCCCC(CCCCCCCCC(=O)OC(CCCCCC)CCCCCC)OC(=O)N(CCCCCC(=O)OCC)CCCCN1CCCC1', '%', 93.63),
  ('CCCCCCCOC(=O)CN(CCCN(C)C)C(=O)OC(CCCCCCCCC(=O)OC(CCCCCC)CCCCCC)CCCCCCCCC(=O)OC(CCCCCC)CCCCCC', '%', 87.42),
  ('CCC/C=C\COC(=O)CCCN(CCCN(C)C)C(=O)OC(CCCCCCCCC(=O)OC(CCCCCC)CCCCCC)CCCCCCCCC(=O)OC(CCCCCC)CCCCCC', '%', 88.92),
  ('CCCCCCC(CCCCCC)OC(=O)CCCCCCCCC(CCCCCCCCC(=O)OC(CCCCCC)CCCCCC)OC(=O)N(CCCCCC(=O)OC(C)CC)CCCN(C)C (stereo not drawn)', '%', 92.85),
  ('CCCCCCC(CCCCCC)OC(=O)CCCCCCCCC(CCCCCCCCC(=O)OC(CCCCCC)CCCCCC)OC(=O)N(CCCCC(=O)OC(CC)CC)CCCN(C)C', '%', 92.03);

* * *

Each entry below lists one item and its recorded Spleen (fluorescence expression intensity) value.
tested on: Female BALB/c mice; experiment: Performance evaluation of in vivo delivery of Fluc mRNA lipid nanoparticle (IVIS, body and organs); conditions: Fluc mRNA LNP, 75 μL IV, 6 hours after injection, IVIS, spleen
readout name: Spleen (fluorescence expression intensity)

INSERT INTO results (compound, experimental_value) VALUES
  ('CCCCCCC(CCCCCC)OC(=O)CCCCCCCCC(CCCCCCCCC(=O)OC(CCCCCC)CCCCCC)OC(=O)N(CCCN(C)C)CC(=O)OCCCCC [Compound 271]', '4.76E+06'),
  ('CCCCCCOC(=O)CN(CCCN(C)C)C(=O)OC(CCCCCCCCC(=O)OC(CCCCCC)CCCCCC)CCCCCCCCC(=O)OC(CCCCCC)CCCCCC [Compound 272]', '3.03E+06'),
  ('CCCC/C=C\CCOC(=O)CCCN(CCCN(C)C)C(=O)OC(CCCCCCCCC(=O)OC(CCCCCC)CCCCCC)CCCCCCCCC(=O)OC(CCCCCC)CCCCCC [Compound 279]', '4.57E+06'),
  ('CCCCCCCC(=O)N(CCCN(C)C)C(CCCCCCCCC(=O)OC(CCCCCC)CCCCCC)CCCCCCCCC(=O)OC(CCCCCC)CCCCCC [Compound 118, reference compound]', '2.19E+06'),
  ('CCCCCCOC(=O)CCN(CCCN(C)C)C(=O)OC(CCCCCCCCC(=O)OCC(CCCC)CCCCCC)CCCCCCCCC(=O)OCC(CCCC)CCCCCC (stereo not drawn) [Compound 372]', '8.59E+06'),
  ('CCCCCCC(CCCCCC)OC(=O)CCCCCCCCC(CCCCCCCCC(=O)OC(CCCCCC)CCCCCC)OC(=O)N(CCCN(C)C)CCC(=O)OC(C)CCCC (stereo not drawn) [Compound 320]', '4.97E+06'),
  ('CCCCCCC(CCCCCC)OC(=O)CCCCCCCCC(CCCCCCCCC(=O)OC(CCCCCC)CCCCCC)OC(=O)N(CCCN(C)C)CCC(=O)OC(CC)CCC (stereo not drawn) [Compound 321]', '1.47E+07'),
  ('CCCCCCC(CCCCCC)OC(=O)CCCCCCCCC(CCCCCCCCC(=O)OC(CCCCCC)CCCCCC)OC(=O)N(CCCC(=O)OCCCCC)CCCN(C)C [Compound 260]', '3.27E+06'),
  ('CCCCCCCOC(=O)CN(CCCN(C)C)C(=O)OC(CCCCCCCCC(=O)OC(CCCCCC)CCCCCC)CCCCCCCCC(=O)OC(CCCCCC)CCCCCC [Compound 273]', '2.37E+06'),
  ('CCCCCCCOC(=O)CN(CCCN(C)C)C(=O)OC(CCCCCCCCC(=O)OCC(CCCC)CCCCCC)CCCCCCCCC(=O)OCC(CCCC)CCCCCC (stereo not drawn) [Compound 375]', '7.63E+06'),
  ('CCCCCCC(CCCC)COC(=O)CCCCCCCCC(CCCCCCCCC(=O)OCC(CCCC)CCCCCC)OC(=O)N(CCCC(=O)OCCCCC)CCCN(C)C (stereo not drawn) [Compound 371]', '2.36E+07'),
  ('CCCCCCCCOC(=O)CN(CCCN(C)C)C(=O)OC(CCCCCCCCC(=O)OC(CCCCCC)CCCCCC)CCCCCCCCC(=O)OC(CCCCCC)CCCCCC [Compound 274]', '2.60E+06');

* * *

Each entry below lists one item and its recorded Encapsulation efficiency value.
test: Preparation and characterisation of mRNA-encapsulating lipid nanoparticle (encapsulation efficiency, particle size); format: physicochemical; conditions: LNP encapsulating Fluc mRNA; Lipid:DSPC:CHO-HP:M-DMG-2000 48:10:40.5:1.5
readout name: Encapsulation efficiency (%)

INSERT INTO measurements (molecule, experimental_value) VALUES
  ('CCCCCCCOC(=O)CCN(CCCN(C)C)C(=O)OC(CCCCCCCCC(=O)OC(CCCCCC)CCCCCC)CCCCCCCCC(=O)OC(CCCCCC)CCCCCC', 93.13),
  ('CCCCCCC(CCCCCC)OC(=O)CCCCCCCCC(CCCCCCCCC(=O)OC(CCCCCC)CCCCCC)OC(=O)N(CCCCC(=O)OC(C)CCC)CCCN(C)C (stereo not drawn)', 93.23),
  ('CCCCCCC(CCCC)COC(=O)CCCCCCCCC(CCCCCCCCC(=O)OCC(CCCC)CCCCCC)OC(=O)N(CCCC(=O)OCCCCC)CCCN(C)C (stereo not drawn)', 93.17),
  ('CCCCCCCOC(=O)CN(CCCN(C)C)C(=O)OC(CCCCCCCCC(=O)OCC(CCCC)CCCCCC)CCCCCCCCC(=O)OCC(CCCC)CCCCCC (stereo not drawn)', 94.18),
  ('CCCCCCC(CCCCCC)OC(=O)CCCCCCCCC(CCCCCCCCC(=O)OC(CCCCCC)CCCCCC)OC(=O)N(CCCCCC(=O)OCC)CCCN1CCCC1', 92.45),
  ('CCCCCCC(CCCCCC)OC(=O)CCCCCCCCC(CCCCCCCCC(=O)OC(CCCCCC)CCCCCC)OC(=O)N(CCCN(C)C)CCC(=O)OCCCC', 94.12);

* * *

Each entry below lists one item and its recorded Encapsulation efficiency value.
Assay: Preparation and characterisation of mRNA-encapsulating lipid nanoparticle (encapsulation efficiency, particle size)
Type: physicochemical
Conditions: LNP encapsulating Fluc mRNA; Lipid:DSPC:CHO-HP:M-DMG-2000 48:10:40.5:1.5
Protocol: A specified amount of Fluc mRNA stock solution, 0.2 M sodium acetate buffer, and DEPC water were added to a container, and mixed well to obtain a water phase; […] The encapsulation efficiency of the lipid nanoparticle encapsulating luciferase mRNA (Fluc mRNA) with a representative amino lipid compound and the fluorescence expression intensity induced by the same are shown in Table 4, with the amino lipid compound 118 as a control. […]
readout name: Encapsulation efficiency (%)

INSERT INTO assay_data (compound, readout_name, experimental_value) VALUES
  ('CCCCCCC(CCCCCC)OC(=O)CCCCCCCCC(CCCCCCCCC(=O)OC(CCCCCC)CCCCCC)OC(=O)N(CCCC(=O)OC(C)CCC)CCCN(C)C (stereo not drawn) [Compound 309]', 'Encapsulation efficiency', 91.62),
  ('CCCCCCC(CCCCCC)OC(=O)CCCCCCCCC(CCCCCCCCC(=O)OC(CCCCCC)CCCCCC)OC(=O)N(CCCCC(=O)OC(C)CCCC)CCCN(C)C (stereo not drawn) [Compound 305]', 'Encapsulation efficiency', 90.70),
  ('CCCCCCC(CCCCCC)OC(=O)CCCCCCCCC(CCCCCCCCC(=O)OC(CCCCCC)CCCCCC)OC(=O)N(CCCN(C)C)CC(=O)OCCCCC [Compound 271]', 'Encapsulation efficiency', 93.59),
  ('CCCCCCC(CCCCCC)OC(=O)CCCCCCCCC(CCCCCCCCC(=O)OC(CCCCCC)CCCCCC)OC(=O)N(CCCCC(=O)OC(CC)CCC)CCCN(C)C (stereo not drawn) [Compound 306]', 'Encapsulation efficiency', 91.92),
  ('CC/C=C\CCOC(=O)CCCN(CCCN(C)C)C(=O)OC(CCCCCCCCC(=O)OC(CCCCCC)CCCCCC)CCCCCCCCC(=O)OC(CCCCCC)CCCCCC [Compound 277]', 'Encapsulation efficiency', 91.00),
  ('CCCCCCC(CCCCCC)OC(=O)CCCCCCCCC(CCCCCCCCC(=O)OC(CCCCCC)CCCCCC)OC(=O)N(CCCN(C)C)CCC(=O)OC(C)CCCCC (stereo not drawn) [Compound 322]', 'Encapsulation efficiency', 90.32),
  ('CCCCCCC(CCCCCC)OC(=O)CCCCCCCCC(CCCCCCCCC(=O)OC(CCCCCC)CCCCCC)OC(=O)N(CCCCC)CCCN(C)C [Compound 108]', 'Encapsulation efficiency', 91.78),
  ('CCCCCCC(CCCCCC)OC(=O)CCCCCCCCC(CCCCCCCCC(=O)OC(CCCCCC)CCCCCC)OC(=O)N(CCCN(C)C)CC(=O)OCCCC [Compound 270]', 'Encapsulation efficiency', 93.46),
  ('CCCCCCOC(=O)CN(CCCN(C)C)C(=O)OC(CCCCCCCCC(=O)OC(CCCCCC)CCCCCC)CCCCCCCCC(=O)OC(CCCCCC)CCCCCC [Compound 272]', 'Encapsulation efficiency', 93.96),
  ('CCCCCCC(CCCCCC)OC(=O)CCCCCCCCC(CCCCCCCCC(=O)OC(CCCCCC)CCCCCC)OC(=O)N(CCCN(C)C)CC(=O)OC(CC)CCCCC (stereo not drawn) [Compound 338]', 'Encapsulation efficiency', 91.13),
  ('CCCCCCC(CCCCCC)OC(=O)CCCCCCCCC(CCCCCCCCC(=O)OC(CCCCCC)CCCCCC)OC(=O)N(CCCCN1CCCC1)CC(=O)OCC [Compound 368]', 'Encapsulation efficiency', 87.51),
  ('CCCCCCC(CCCCCC)OC(=O)CCCCCCCCC(CCCCCCCCC(=O)OC(CCCCCC)CCCCCC)OC(=O)N(CCCCCC)CCCN(C)C [Compound 109]', 'Encapsulation efficiency', 92.87);
